Values from paper PMC10818523

Provide the recorded IC50 for the entries that follow.
Target protein (sequence): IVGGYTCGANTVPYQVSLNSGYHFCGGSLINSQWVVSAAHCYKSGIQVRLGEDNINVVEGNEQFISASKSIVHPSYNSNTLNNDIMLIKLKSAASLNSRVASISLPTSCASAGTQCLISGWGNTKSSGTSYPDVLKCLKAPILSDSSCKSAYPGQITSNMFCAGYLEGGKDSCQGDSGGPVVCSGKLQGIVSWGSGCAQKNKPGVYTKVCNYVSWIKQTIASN
Quick note: give the figure in µM, leave out the unit.

Request: What value of IC50 has been recorded for this entry: COc1ccc(CCNC(=O)C(C)c2ccc(-c3ccccc3)c(F)c2)cc1 (stereo not shown)
Response: 203

Request: Param item: CC(C(=O)NCCc1cccc(Cl)c1)c1ccc(-c2ccccc2)c(F)c1 (stereo not shown)
Response: 198

Request: Param item: CC(C)Cc1ccc(C(C)C(=O)O)cc1 (stereo not shown) [Ibu, ibuprofen, reference compound]
Response: 1260

Request: Param item: CC(C(=O)O)c1ccc(-c2ccccc2)c(F)c1 (stereo not shown)
Response: 441

====

# assayed_target: human albumin (Homo sapiens)
# Sequence (P02768 25-609): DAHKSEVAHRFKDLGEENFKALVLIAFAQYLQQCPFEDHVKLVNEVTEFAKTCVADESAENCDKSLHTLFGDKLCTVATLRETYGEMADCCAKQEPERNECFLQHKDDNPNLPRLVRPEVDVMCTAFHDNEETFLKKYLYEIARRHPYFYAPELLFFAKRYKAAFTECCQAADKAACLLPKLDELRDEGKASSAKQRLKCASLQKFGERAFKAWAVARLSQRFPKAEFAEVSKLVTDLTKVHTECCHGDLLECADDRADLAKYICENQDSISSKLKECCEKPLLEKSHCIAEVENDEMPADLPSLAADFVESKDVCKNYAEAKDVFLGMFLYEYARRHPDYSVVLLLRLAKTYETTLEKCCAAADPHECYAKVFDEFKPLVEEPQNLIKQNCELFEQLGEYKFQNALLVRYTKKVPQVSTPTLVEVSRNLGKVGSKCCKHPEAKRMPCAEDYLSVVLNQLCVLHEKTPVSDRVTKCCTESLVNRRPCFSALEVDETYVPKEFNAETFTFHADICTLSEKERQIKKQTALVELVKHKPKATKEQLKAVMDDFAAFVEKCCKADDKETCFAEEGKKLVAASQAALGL
# assay_details: Inhibition of albumin denaturation (IAD)
# Format: biochemical
# assay_setup: IAD IC50 ± SD, heated at 70 °C for 15 min, mean ± SD of triplicates
attribute_measured: IC50 (µM)
Quick note: give the figure in µM, leave out the unit.

Request: What value of IC50 has been recorded for this entry: CC(C(=O)O)c1ccc(-c2ccccc2)c(F)c1 (stereo not shown) [Flu, flurbiprofen]
Response: 339

====

Provide the recorded RM ± SD for the entries that follow.
# assay_details: Experimental determination of lipophilicity (RM), reversed-phase thin-layer chromatography
# Type: physicochemical
# assay_setup: dimensionless, from thin-layer chromatography Rf
Output spec: single numeric token, no unit.

Request: What value of RM ± SD has been recorded for this entry: COc1cccc(CCNC(=O)C(C)c2ccc(-c3ccccc3)c(F)c2)c1 (stereo not shown) [Compound 4b]
Response: 1.13

Request: Param item: CC(C(=O)NCCc1ccccc1)c1ccc(-c2ccccc2)c(F)c1 (stereo not shown) [Compound 4a]
Response: 1.24

Request: Param item: CC(C(=O)O)c1ccc(-c2ccccc2)c(F)c1 (stereo not shown) [Flu, flurbiprofen]
Response: 1.37

Request: Param item: CC(C)Cc1ccc(C(C)C(=O)O)cc1 (stereo not shown) [Ibu, ibuprofen, reference compound]
Response: 1.11

Request: Param item: CC(C(=O)NCCc1cccc(Cl)c1)c1ccc(-c2ccccc2)c(F)c1 (stereo not shown) [Compound 4e]
Response: 1.41

Request: Param item: COc1ccc(CCNC(=O)C(C)c2ccc(-c3ccccc3)c(F)c2)cc1 (stereo not shown) [Compound 4c]
Response: 1.21

Request: Param item: COc1ccc(CCNC(=O)C(C)c2ccc(-c3ccccc3)c(F)c2)cc1OC (stereo not shown) [Compound 4d]
Response: 1.33
